This listing pairs substances with measured Activity.
- Test system: Zone of skin
- assay-notes: Melanotropic activity in frog skin assessed as skin darkening at 18 ng relative to control
- Format: functional, Anura
Please respond with the number in % and leave the unit unwritten.

# substance, readout-name, measurement
data = [
    ("H-DGGPYKMQHGRWGSPPKD-OH", "Activity", 7.8),
    ("H-DGGPYKMQHFRWGSPPKD-OH", "Activity", 71),
    ("H-DGGPYKMQHFRFGSPPKD-OH", "Activity", 38.2),
]

Shifting focus to the substance that follows.
Given the substance `H-DGGPYKMRHFRWGSPPKD-OH` , what is its reported Activity?
24.6
